STUDY_SYSTEM: natriuretic peptide receptor on C3H10T1/2 cells
ASSAY_NOTES: cell-based or functional assay
Label class 1 when % relative binding (cGMP, Biotrak EIA, peptide at 10^-6 M) is at or above 20%; otherwise label class 0.

Consider the worked cases shown below.
BINDER	GROUP_LABEL
CFGLKLDRIGAQC [CNP variant SEQ ID NO:19]	class 0
CFGLKLDRIGSC [CNP variant SEQ ID NO:21]	class 1
CFGLKLDRIGSMC [CNP variant SEQ ID NO:16]	class 0

Note: attention shifts to another entry.
Request: Quick check: does CHFGLKLDRIGSMAC [CNP variant SEQ ID NO:12] have % relative binding (cGMP, Biotrak EIA, peptide at 10^-6 M) greater than or equal to 20%?
Response: class 1
